test.system: T1, huCD33-R69-His recombinant protein (human, UniProt P20138 18-259);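 further: scFvs from periplasmic extracts captured on biosensors via anti-V5 antibody, exposed to recombinant huCD33 variants for 2 min, 5 min dissociation, scored as binding, no binding or ambiguous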
T1 construct: extracellular domain
T1 sequence (P20138 18-259): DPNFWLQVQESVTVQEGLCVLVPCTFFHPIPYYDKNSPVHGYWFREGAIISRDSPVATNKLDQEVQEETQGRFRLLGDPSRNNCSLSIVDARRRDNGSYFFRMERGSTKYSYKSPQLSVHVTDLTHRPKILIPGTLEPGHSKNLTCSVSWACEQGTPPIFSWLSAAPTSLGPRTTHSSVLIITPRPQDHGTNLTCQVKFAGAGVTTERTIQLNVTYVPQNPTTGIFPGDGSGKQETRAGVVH
procedure.details: BLI

>  <binder>
Polypeptide No. 26 (scFv, V domains shown, scFv) VH: QVQLVQSGAEVKKPGASVKVSCKASGYTFTENEMHWVRQAPGQGLEWMGWMNPNSGNTGYAQKFQGRVTMTRDTSTSTVYMELSSLRSEDTAVYYCAREGGDWPYYYMDVWGKGTTVTVSS VL: DIQMTQSPSSLSASVGDRVTITCQASQDIRNYLNWYQQKPGKAPKLLIYAASSLQSGVPSRFSGSGSGTDFTLTISSLQPEDFATYYCQQTSSTPLTFGPGTKVDIKR

>  <binding result>
no binding

$$$$
>  <binder>
Polypeptide No. 39 (scFv, V domains shown, scFv) VH: EVQLLESGGGLVQPGGSLRLSCAASGFTFRNYGMGWVRQAPGKGLEWVSAISGSGGSTYYADSVKGRFTISRDNSKNTLYLQMNSLRAEDTAVYYCARVKFYGMDVWGQGTTVTVSS VL: DIQMTQSPSSLSASVGDRVTITCRASQGISNDLAWYQQKPGKAPKLLIYGASNLETGVPSRFSGSGSGTDFTLTISSLQPEDFATYYCQQANSFPFTFGPGTKVDIKR

>  <binding result>
no binding

$$$$
>  <binder>
Polypeptide No. 29 (scFv, V domains shown, scFv) VH: QVQLVQSGAEVKKPGASVKVSCKASGYTFTGYYLHWVRQAPGQGLEWMGVINVRRGSTRYAQNFQGRVTMTRDTSTSTVYMELSSLRSEDTAVYYCARVSGSYYQPWGQGTLVTVSS VL: DIQMTQSPSSLSASVGDRVTITCRASQSISRWLAWYQQKPGKAPKLLIYDASNLETGVPSRFSGSGSGTDFTLTISSLQPEDFATYYCQQGNSFPPIFGGGTKVEIKR

>  <binding result>
no binding

$$$$
